FYI, the data here is from PubChem BioAssay (NCI).

# Tested on: UACC-257 melanoma
# method: NCI-60 one-dose screen, 48 h (100 = growth as untreated, 0 = no growth, -100 = all killed)
# cond: 10 µM
Compounds without any hit were thinned out: in the full panel of roughly 83,000, 20% have a hit.
reported metric: growth (%)
Numbers only, in %.

Example entries begin here.
{"columns": ["molecule", "reported metric", "recorded number"],
 "data": [
  ["CC12CC3CC1C(C(=O)O2)C3C(=O)O (stereo unspecified)", "growth", 92.1],
  ["CCCC(C)OCC(=O)O (stereo unspecified)", "growth", 90.2],
  ["COc1cc(C2NC(=O)C(C#N)=C(Nc3cccc(C)c3)S2)ccc1O (stereo unspecified)", "growth", -2.62],
  ["COc1ccccc1C1OC2=Nc3cc(C)c(C)cc3NC2C1=O (stereo unspecified)", "growth", 104],
  ["N=c1c(C(=O)OCc2ccccc2)ncc(CCl)n1O", "growth", 81.8]
]}

Below are some molecules; for each one, tell me its growth.
1. CCCCCCCCCCCCCCCCC1CC(=O)OC1=O (stereo unspecified)
2. c1c(-c2cc(C3CC3)[nH]n2)n[nH]c1C1CC1
3. O=C(NN=C1CCCCC1)C(=O)NN=C1CCCCC1

Out:
1: 104; 2: 90.8; 3: 108

Below are some molecules; for each one, tell me its growth.
1. CN(C)c1ccc(S(=O)(=O)O)cc1
2. Cc1ccc(/C(C#N)=C/c2ccc3c(c2)OCO3)cc1
3. O=C(O)CCCc1ccccc1
4. CCCCC/C=N/Nc1nc(C)cc(=O)[nH]1
5. COc1cc(/C=N\Nc2ccccc2)ccc1OC(=O)c1ccccc1
6. COc1ccc2c(NCCCCCCCCNc3c4ccccc4nc4cc(OC)ccc34)c3ccccc3nc2c1

Out:
1: 107; 2: 87.1; 3: 104; 4: 93.1; 5: 81.8; 6: -88.8

Below are some molecules; for each one, tell me its growth.
1. CCC/C=C(\C)C(C)(C#N)C(=O)OCC (stereo unspecified)
2. CCOC(=O)/C(C#N)=C/c1cccc(C)c1

Out:
[86.2, 104]

---

# Test system: CAKI-1 renal
# method: NCI-60 one-dose screen, 48 h
# cond: 10 µM
This is part of a sample that, as a whole, favours compounds with a hit. Of some 83,000 tested, about 20% had one in any assay. Activity calls are given as the source filed them. How the source made its calls: active means growth percent below 10; inactive means the rest.
Pick from active, inactive when you respond.

{"columns": ["compound", "label"],
 "data": [
  ["O=C(O)CCCC(=O)O", "inactive"],
  ["Cc1cc(C)c(N)c(S(=O)(=O)O)c1", "inactive"],
  ["Cc1ccccc1C1N=C2Oc3ccccc3C=C2C(=O)N1 (stereo not given)", "inactive"],
  ["CC(=O)OCC1CCCO1 (stereo not given)", "inactive"],
  ["COC(=O)/C=C1\\Sc2cc(F)ccc2NC1=O", "inactive"],
  ["NC(=S)N/N=C/c1ccc(N)cc1", "inactive"]
]}

Kindly consider the entry below.
In: Tell me the recorded outcome of this test for "O=C(N/N=C/c1ccccc1O)Nc1nn[nH]n1" .
Out: inactive

---

For each entry below, report its growth value.
# System: NCI-H522 lung
# method: NCI-60 one-dose screen, 48 h (100 = growth as untreated, 0 = no growth, -100 = all killed)
# cond: 10 µM
# Protocol: Growth inhibition of the NCI-H522 human Non-Small Cell Lung tumor cell line is measured as a screen for anti-cancer activity. Cells are grown in 96 well plates and exposed to the test compound for 48 hours. Compounds are tested at a single concentration, which is 10^-5 M for most compounds. The reported endpoint is percent growth (GI% or GIPRCNT), where numbers from 0 - 100% represent growth inhibition, and numbers from -100% - 0 represent cell death. […]
Compounds without any hit were thinned out: in the full panel of roughly 83,000, 20% have a hit. Where a SMILES comes first, the peptide text is derived from it. Bridges are numbered along the chain shown (N, C = ends). [ ]: non-standard residue; d: D form. The star is where a group is joined. ξ: configuration not given here. ξNMePhe(4-NMe2) = CNC(Cc1ccc(N(C)C)cc1)C(=O)O; Picolinoyl(3-OH) = O=C(c1ncccc1O)*; ξPip(4-oxo) = O=C1CCNC(C(=O)O)C1; Phg = N[CH](C(=O)O)c1ccccc1; Abu = CC[CH](N)C(=O)O
One number for each entry, in %.

{"columns": ["molecule", "recorded number"],
 "data": [
  ["CC1CC(O)C2C3(C)CCCC2(COC3=O)C12CCC1(CCOC1=O)O2 (stereo not given)", 107],
  ["CC1(C)/C(=C\\CO)C2CCC1C2 (stereo not given)", 88.8],
  ["C=CCCCCCCCCCOC(C)=O", 102]
]}

Below are some molecules; for each one, tell me its growth.
1. COc1cc(C(=O)N/N=C/c2cccc([N+](=O)[O-])c2)cc(OC)c1OC
2. CC1(C)N=C(N)N=C(N)N1c1cccc(Br)c1

Out:
[19.6, 52.5]

Below are some molecules; for each one, tell me its growth.
1. c1ccc(CN2COc3c(ccc4c3OCN(Cc3ccccc3)C4)C2)cc1
2. CC(C)(O)C#CC#CC(C)(C)O
3. CC(C)=C(NC(=O)c1ccccc1)C(=O)O
4. CCCC(=O)Nc1ccc2c(c1)CN1C(=O)c3ccccc3C1=N2
5. Cc1cc(Cc2cc(C)c(N)cc2N)c(N)cc1N
6. O=[N+]([O-])c1cccc(N=Nc2ccc(O)cc2O)c1
7. CCCCCCCCO
8. CCCCCCCCCCCCCCCCC1CC(=O)OC1=O (stereo not given)

Out:
1. 30.7
2. 82.5
3. 92.3
4. 106
5. 89.4
6. -11.1
7. 107
8. 98.6

Below are some molecules; for each one, tell me its growth.
1. O=C(CCl)Nc1ccc2c(c1)C(=O)c1ccc(NC(=O)CCl)cc1C2=O
2. CC(=O)Nc1cccc(NC(C)=O)n1
3. Cc1cccc([N+](=O)[O-])c1Cl
4. Clc1ccc(-c2nnc(-c3cccc4ccccc34)o2)cc1
5. CCCCC(O)c1ccccc1 (stereo not given)
6. CC(=O)OCC1CCCO1 (stereo not given)
7. C#CCSc1nnnn1-c1ccc(Br)c(C)c1

Out:
-65.2
100
116
83.5
108
91
71.1

Below are some molecules; for each one, tell me its growth.
1. COC(=O)/C=C1\Sc2cc(F)ccc2NC1=O
2. CCC1NC(=O)C(NC(=O)c2ncccc2O)C(C)OC(=O)C(c2ccccc2)NC(=O)C2CC(=O)CCN2C(=O)C(Cc2ccc(N(C)C)cc2)N(C)C(=O)C2CCCN2C1=O (stereo not given) (tested in a mixture with another compound) ({Picolinoyl(3-OH)}-T[Abu]P[ξNMePhe(4-NMe2)][ξPip(4-oxo)][Phg]; ester 1-C; configuration not given here)
3. O=C(/C=C\c1ccc(O)cc1)c1ccccc1
4. COc1cc(CN)ccc1O
5. S=c1[nH]ccn1-c1ccccc1Cl
6. CCOC(=O)C1OC1c1ccccc1 (stereo not given)

Out:
107
66
-31.4
88
-30.9
104

Below are some molecules; for each one, tell me its growth.
1. CC(=O)OCC1=CC2OC(=O)C3=COC(OC4OC(CO)C(O)C(O)C4O)C1C32 (stereo not given)
2. Nc1nc2c(c(-c3nc(N)nc4c3CCc3ccccc3-4)n1)CCc1ccccc1-2
3. O=C(c1ccc(O)cc1)c1ccc(O)cc1
4. COc1cc(/C=C(\C#N)C(=O)c2ccccc2)ccc1OCc1ccccc1
5. c1ccc(Sc2ccccc2)cc1
6. CN(C)C(=O)Oc1cccc([N+](C)(C)C)c1

Out:
[93.5, 99.1, 95.8, 97.6, 139, 109]

Below are some molecules; for each one, tell me its growth.
1. COCCOC(=O)c1ccc(C(C)C)cc1
2. Nc1ncnc2c1nc(N)n2C1OC(CO)C(O)C1O (stereo not given)
3. CC(=O)OCC1OC(OC2=C(CC=C(C)C)C(=O)c3ccccc3C2=O)C(OC(C)=O)C(OC(C)=O)C1OC(C)=O (stereo not given)
4. CC(=O)c1ccc(C(C)(C)C)cc1
5. S=C1CCCCCN1
6. Nc1ccc(C(=O)c2ccc(N)c(Br)c2)cc1Br

Out:
1. 79.7
2. -63.3
3. 22.3
4. 99.6
5. 105
6. -36.1

Below are some molecules; for each one, tell me its growth.
1. COc1cc2c3cc1Oc1c(OC)c(OC)cc4c1C(Cc1ccc(O)c(c1)Oc1ccc(cc1)CC3N(C)CC2)N(C)CC4 (stereo not given)
2. CC(C)=NNC(N)=S
3. O=C(Cc1nc2ccc([N+](=O)[O-])cc2nc1CC(=O)c1ccccc1)c1ccccc1

Out:
[-34.4, 88, 31.5]

Below are some molecules; for each one, tell me its growth.
1. Cc1nc2c(ccc3ccccc32)s1
2. COc1cccc(O)c1O
3. C#CC(C)(O)c1ccc(Cl)cc1 (stereo not given)
4. c1ccc(/C(=N\N=C(/c2ccccc2)c2cccs2)c2cccs2)cc1

Out:
103
79
91.4
83.1
